- SYSTEM: wild-type LcαE7 (αE7 carboxylesterase) (Lucilia cuprina, UniProt Q25252)
- Sequence (Q25252 1-570): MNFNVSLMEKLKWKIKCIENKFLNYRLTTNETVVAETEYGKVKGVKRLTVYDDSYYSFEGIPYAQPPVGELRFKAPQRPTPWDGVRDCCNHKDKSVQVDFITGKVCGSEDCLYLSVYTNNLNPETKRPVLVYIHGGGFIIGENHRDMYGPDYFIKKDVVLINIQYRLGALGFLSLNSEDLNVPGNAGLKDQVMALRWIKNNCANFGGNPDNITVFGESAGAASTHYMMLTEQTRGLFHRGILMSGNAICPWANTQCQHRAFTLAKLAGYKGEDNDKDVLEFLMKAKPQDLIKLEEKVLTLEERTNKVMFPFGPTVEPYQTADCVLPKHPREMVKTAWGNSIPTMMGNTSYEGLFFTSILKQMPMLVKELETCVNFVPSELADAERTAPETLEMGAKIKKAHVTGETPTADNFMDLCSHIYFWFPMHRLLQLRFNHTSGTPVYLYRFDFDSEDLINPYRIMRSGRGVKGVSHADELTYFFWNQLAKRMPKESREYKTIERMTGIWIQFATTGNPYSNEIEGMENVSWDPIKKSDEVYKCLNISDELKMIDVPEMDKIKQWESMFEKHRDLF
- ASSAY COMMENT: Inhibition of wildtype αE7 (competition assay, hydrolysis of 4-nitrophenol butyrate), dose-response curves of FIG. 7
- CONDITION DETAILS: 95% confidence interval in brackets; recombinant His6-tagged enzyme from E. coli, 0.5 nM; 4-nitrophenol butyrate 15 μM (= KM); room temperature, pH 7.5, 405 nm; three technical replicates
Lab note: cut-off is 20 nM. Strictly less in IC50 is Fulfilled. Exactly 20 nM or more is Not fulfilled.

1. OB(O)c1cc(Br)cc(OC(F)(F)F)c1: Fulfilled

Ask | Quick check: IC50 of OB(O)c1cc(Br)cc2c1OCC2 under 20 nM?
Reply | Fulfilled

Ask | Say whether its IC50 is strictly beneath 20 nM. Entry: OB(O)c1cc(Br)c2ccccc2c1F
Reply | Fulfilled

Ask | Field: below-cutoff. Rule: recorded IC50 strictly less than 20 nM. Subject: OB(O)c1ccc2ccccc2c1
Reply | Fulfilled

Ask | Item CC(C)(C)Oc1ccc(B(O)O)cc1Br : IC50 beneath 20 nM, strictly?
Reply | Not fulfilled

Ask | Is the reported IC50 for OB(O)c1ccc(OCc2ccccc2F)c(Cl)c1 strictly below 20 nM?
Reply | Not fulfilled

Ask | # check: IC50 < 20 nM for OB(O)c1cc(Br)cc(OCc2ccccc2)c1
Reply | Fulfilled

###

- Test system: H23
- ASSAY COMMENT: Cell toxicity panel, viability (luminescence)
- Format: cell-based, human
- CONDITION DETAILS: Readout: Luminescence; read-out: IC50 Viability Cells, Cell line: H23
READOUT KIND: IC50

Ask | Given the molecule OB(O)c1cc(Br)cc(N2CCOCC2)c1 , what is its reported IC50?
Reply | > 99.8 µM

###

- SYSTEM: Electrophorus electricus AChE (Electrophorus electricus, UniProt O42275)
- Sequence (O42275 24-633): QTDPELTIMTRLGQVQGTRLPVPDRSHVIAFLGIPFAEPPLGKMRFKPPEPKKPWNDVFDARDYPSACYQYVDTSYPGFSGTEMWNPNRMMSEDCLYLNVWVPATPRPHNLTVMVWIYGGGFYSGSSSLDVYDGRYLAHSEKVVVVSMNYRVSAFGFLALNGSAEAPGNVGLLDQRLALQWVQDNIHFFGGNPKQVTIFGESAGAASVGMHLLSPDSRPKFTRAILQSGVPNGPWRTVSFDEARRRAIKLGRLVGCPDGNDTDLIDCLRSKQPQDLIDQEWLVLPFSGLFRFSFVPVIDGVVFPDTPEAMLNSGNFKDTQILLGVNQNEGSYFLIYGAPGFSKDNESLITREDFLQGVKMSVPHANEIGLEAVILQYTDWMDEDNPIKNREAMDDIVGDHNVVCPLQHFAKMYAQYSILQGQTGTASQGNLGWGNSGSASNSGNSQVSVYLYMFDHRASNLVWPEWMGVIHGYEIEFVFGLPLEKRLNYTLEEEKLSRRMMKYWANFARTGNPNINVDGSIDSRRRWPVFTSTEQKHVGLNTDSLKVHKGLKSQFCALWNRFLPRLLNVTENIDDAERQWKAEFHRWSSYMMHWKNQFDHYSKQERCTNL
- ASSAY COMMENT: AChE selectivity (Ellman, acetylthiocholine)
- CONDITION DETAILS: tested to solubility limit; read-out: Ki Ee AChE
pKi: −log10 of the molar value.
The entries below are paired with their reported pKi.

The following compounds have reported results that may help.
1. Cc1ccc(B(O)O)cc1Br: < 3.00
2. OB(O)c1cc(Br)cc(N2CCCC2)c1: 3.57
3. OB(O)c1ccccc1 [PBA, phenylboronic acid, reference compound]: < 2.00
4. OB(O)c1ccc2ccccc2c1: < 3.00
5. Cc1ccc(B(O)O)cc1OCc1ccccc1: < 3.52

// next item, pKi requested
Ask | I am curious: what pKi value has been reported for OB(O)c1ccc(OCc2ccccc2F)c(Cl)c1 ?
Reply | < 4.00

###

- SYSTEM: wildtype LcαE7 (Lucilia cuprina, UniProt Q25252)
- ASSAY COMMENT: Enzyme inhibition assay with 4-nitrophenol butyrate, wild-type
- Format: biochemical
- CONDITION DETAILS: Cheng-Prusoff from dose-response; 4-nitrophenol butyrate; read-out: Ki wildtype LcαE7
READOUT KIND: Ki (nM)
Write the value in nM as a bare number.

Ask | Reported Ki for OB(O)c1cc(Br)cc(N2CCOCC2)c1 : what is it?
Reply | 0.7
